B1: NF2 (merlin) isoform 7, human, full length (507 aa, lacks exons 2-3 = isoform-1 residues 39-121; exon-16 C-terminus), P35240-4 (parent)
chain: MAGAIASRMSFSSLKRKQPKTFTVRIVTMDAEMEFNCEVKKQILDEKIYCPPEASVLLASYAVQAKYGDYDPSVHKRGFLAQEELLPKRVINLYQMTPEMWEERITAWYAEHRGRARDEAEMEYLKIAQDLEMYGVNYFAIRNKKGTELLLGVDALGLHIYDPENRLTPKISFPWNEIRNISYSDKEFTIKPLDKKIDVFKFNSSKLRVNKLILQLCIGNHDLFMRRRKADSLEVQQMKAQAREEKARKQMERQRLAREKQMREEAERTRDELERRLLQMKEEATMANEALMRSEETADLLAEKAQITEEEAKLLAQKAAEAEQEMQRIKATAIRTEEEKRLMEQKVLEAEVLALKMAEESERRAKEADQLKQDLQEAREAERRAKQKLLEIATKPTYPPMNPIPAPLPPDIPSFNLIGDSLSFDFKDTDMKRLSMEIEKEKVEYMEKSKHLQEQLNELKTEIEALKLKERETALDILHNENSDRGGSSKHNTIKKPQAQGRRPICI

# Variants of: B1
# assay.protocol: reverse yeast two-hybrid deep mutational scan (rY2H-seq): NF2 isoform 7 mutant library as bait mated with wild-type prey strains; selection on medium lacking adenine for non-interacting pairs; NextSeq paired-end sequencing; enrichment vs …
# recorded.conditions: with NF2 C-terminal domain (wild type; homomeric NF2-NF2 interaction), P35240; yeast diploids after mating (RBait_S3 x RPrey_S3), 30 °C, selection for reporter genes on NB agar; human ABL2 co-expressed as the kinase-dead K35M mutant …; HIGHER = WEAKER BINDING (the opposite of display enrichments): higher = stronger loss of interaction: reverse Y2H selects yeast in which bait and prey do NOT interact (growth without adenine), so a …; hits-only table; partner unresolved; scale: rY2H score; numbering: uniprot, sequence starts at 1
quantity.kind: enrichment

Completed entries (count: 6):
L58P = 2.09
L315K = 1.46
M326E = 1.94
E380K = 3.26
A385E = 2.06
T297L = 3.13

[P] L291E
[Q] H479A
Query: Determine, for P and Q , which has the greater value of enrichment. Please respond with the label that marks your chosen entry.
Response: Q
(Q: 4.46, P: 2.16)

[1] T332A
[2] E83K
Query: Compare enrichment: is it lower for 1 or for 2 ? Please respond with the label that marks your chosen entry.
Response: 1
(1: 2.4, 2: 18.2)
